# measured-target: UniProt:P00747
# Sequence (P00747 581-810 limits assumed): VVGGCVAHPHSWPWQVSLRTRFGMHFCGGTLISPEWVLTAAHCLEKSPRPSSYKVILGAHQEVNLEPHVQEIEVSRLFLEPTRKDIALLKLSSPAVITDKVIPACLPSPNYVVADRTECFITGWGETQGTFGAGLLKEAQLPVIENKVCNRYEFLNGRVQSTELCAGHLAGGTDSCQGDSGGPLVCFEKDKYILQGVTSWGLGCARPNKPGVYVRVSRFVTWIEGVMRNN
# Sequence (P00747 97-580 partner limits assumed): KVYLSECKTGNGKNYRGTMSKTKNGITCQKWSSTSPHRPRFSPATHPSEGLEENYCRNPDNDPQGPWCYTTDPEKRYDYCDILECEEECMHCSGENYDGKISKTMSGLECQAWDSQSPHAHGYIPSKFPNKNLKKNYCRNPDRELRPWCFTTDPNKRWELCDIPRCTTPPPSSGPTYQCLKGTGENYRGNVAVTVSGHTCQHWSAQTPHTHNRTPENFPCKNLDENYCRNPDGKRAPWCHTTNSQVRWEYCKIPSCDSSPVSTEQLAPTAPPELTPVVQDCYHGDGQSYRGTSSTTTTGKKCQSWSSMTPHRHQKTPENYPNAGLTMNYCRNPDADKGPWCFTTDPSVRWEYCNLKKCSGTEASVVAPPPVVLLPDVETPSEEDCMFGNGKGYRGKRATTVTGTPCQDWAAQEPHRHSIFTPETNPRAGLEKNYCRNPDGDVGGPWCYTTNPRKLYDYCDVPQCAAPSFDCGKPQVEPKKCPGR
# assay-text: biochemical
# condition-notes: Table IV, present compounds; plasmin, fibrin decomposition; read-out: I50 Fibrin
Square brackets hold non-standard residues; d marks the D form. Peptide text beside a SMILES is read from it. * marks the point of attachment. dPhg = N[C@@H](C(=O)O)c1ccccc1; Tos = Cc1ccc(S(=O)(=O)*)cc1
measured-attribute: IC50 (µM)

[[record]]
compound = "NCCCCCC(=O)N[C@@H](CCCCN)C(=O)O"
value_units = "µM"
reported_value = 300


P. CCOC(=O)[C@H](NC(=O)[C@H](CCCCN)NS(=O)(=O)c1ccc(C)cc1)c1ccccc1 [compound 22] (Tos-Lys-[dPhg]-OEt)
Q. NCCCC[C@H](NC(=O)c1ccccc1)C(N)=O
Select one. Lower IC50: P or Q Your choice should be expressed through its label.
Q
(Q: 140 µM, P: 600 µM)
